- Test system: Mycobacteroides abscessus
- assayMethodText: Antimycobacterial activity against Mycobacterium abscessus FM0058 clinical isolate assessed as inhibition zone diameter at 200 ng after 3 days by disc diffusion method
- Format: functional
Some molecules, each annotated with its measured diameter of the inhibition zone (DIZ).
Could you give the number and then its unit, please?

The cases that follow already have their diameter of the inhibition zone (DIZ) on record.
CO[C@H]1/C=C/O[C@@]2(C)Oc3c(C)c(O)c4c(c3C2=O)C(=O)C(N2CCOCC2)=C(NC(=O)/C(C)=C\C=C\[C@H](C)[C@H](O)[C@@H](C)[C@@H](O)[C@@H](C)[C@H](OC(=O)NCc2cc(-c3ccccn3)no2)[C@@H]1C)C4=O | 25 mm
CO[C@H]1/C=C/O[C@@]2(C)Oc3c(C)c(O)c4c(O)c(c(/C=N/N5CCN(C)CC5)c(O)c4c3C2=O)NC(=O)/C(C)=C\C=C\[C@H](C)[C@H](O)[C@@H](C)[C@@H](O)[C@@H](C)[C@H](OC(C)=O)[C@@H]1C | 0 mm
CO[C@H]1/C=C/O[C@@]2(C)Oc3c(C)c(O)c4c(c3C2=O)C(=O)C(N2CCOCC2)=C(NC(=O)/C(C)=C\C=C\[C@H](C)[C@H](O)[C@@H](C)[C@@H](O)[C@@H](C)[C@H](OC(=O)NCc2cc(-c3ccccc3)no2)[C@@H]1C)C4=O | 21 mm

In: diameter of the inhibition zone (DIZ) for `CO[C@H]1/C=C/O[C@@]2(C)Oc3c(C)c(O)c4c(c3C2=O)C(=O)C(N2CCOCC2)=C(NC(=O)/C(C)=C\C=C\[C@H](C)[C@H](O)[C@@H](C)[C@@H](O)[C@@H](C)[C@H](OC(=O)NC2CCN(Cc3ccccc3)CC2)[C@@H]1C)C4=O` ?
Out: 29 mm
